# System: MBP-antiABA-scFv
# assay overview: SPR affinity in solution (competitive titration) of test compounds for the scFv
# Format: binding, mouse
# condition: scFv 25 nM, 1 hour at 25°C
// classify: if (Affinity in solution, MBP-aABA-scFv, KA < 100 M⁻¹) criterion met else criterion not met

Ask: Hello, is Affinity in solution, MBP-aABA-scFv, KA of the following molecule strictly smaller than 100 M⁻¹? CC(C)=CCC/C(C)=C/CC/C(C)=C/CO [All-trans-Farnesol]
Reply: criterion met

Ask: Hello, is Affinity in solution, MBP-aABA-scFv, KA of the following molecule strictly smaller than 100 M⁻¹? NCCCCC(N)C(=O)O (racemic)
Reply: criterion not met

Ask: Hello, is Affinity in solution, MBP-aABA-scFv, KA of the following molecule strictly smaller than 100 M⁻¹? CC(C=CC1(O)C(C)=CC(=O)CC1(C)C)=CC(=O)O (racemic) [2-cis-(R,S)-(±)-ABA]
Reply: criterion not met

Ask: Hello, is Affinity in solution, MBP-aABA-scFv, KA of the following molecule strictly smaller than 100 M⁻¹? CC(=C/C(=O)O)/C=C/[C@]1(O)[C@@]2(C)CO[C@]1(C)CC(=O)C2
Reply: criterion not met

Ask: Hello, is Affinity in solution, MBP-aABA-scFv, KA of the following molecule strictly smaller than 100 M⁻¹? CC(C=CC1(O)C2(C)COC1(C)CC(O)C2)=CC(=O)O (centres unmarked) [Dihydrophaseic acid]
Reply: criterion not met

Ask: Hello, is Affinity in solution, MBP-aABA-scFv, KA of the following molecule strictly smaller than 100 M⁻¹? C=C1C[C@]23C[C@@]1(O)CC[C@H]2[C@@]12C=C[C@H](O)[C@@](C)(C(=O)O1)[C@H]2[C@@H]3C(=O)O
Reply: criterion met

Ask: Hello, is Affinity in solution, MBP-aABA-scFv, KA of the following molecule strictly smaller than 100 M⁻¹? CC(C=CC12OC1(C)CC(O)CC2(C)C)=CC=O (centres unmarked)
Reply: criterion not met

Ask: Hello, is Affinity in solution, MBP-aABA-scFv, KA of the following molecule strictly smaller than 100 M⁻¹? O=C(O)c1ccccc1
Reply: criterion met

Ask: Hello, is Affinity in solution, MBP-aABA-scFv, KA of the following molecule strictly smaller than 100 M⁻¹? CC(C=CC1C(C)=CC(=O)CC1(C)C)=CC(=O)O (mixture of isomers) [2-cis-(R,S)-(±)-1’-deoxy-ABA]
Reply: criterion not met

Ask: Hello, is Affinity in solution, MBP-aABA-scFv, KA of the following molecule strictly smaller than 100 M⁻¹? O=C(O)Cc1c[nH]c2ccccc12
Reply: criterion not met

Ask: Hello, is Affinity in solution, MBP-aABA-scFv, KA of the following molecule strictly smaller than 100 M⁻¹? CC1=CC(=O)CC(C)(C)[C@@]1(O)/C=C/C(C)=C\C(=O)O [2-cis-(S)-(+)-ABA]
Reply: criterion not met

###

# study system: MBP-antiABA-scFv
# assay overview: SPR affinity in solution (competitive titration) of test compounds for the scFv
# Type: binding, mouse
# condition: scFv 25 nM, 1 hour at 25°C; read-out: Affinity in solution, MBP-aABA-scFv, KD
# Method: All heterogeneous phase (surface) techniques can be subject to artefacts introduced by ligand immobilisation or e.g. biotinylation of the free ligand. […] The equilibrium mixtures (1 hour at 25°C) were injected over an SA chip surface saturated with b-PEG-ABA at high ligand density, and the initial binding rate of free scFv was measured. […]
// classify: if (Kd < 2 mM) 1.0 else 0.0

Ask: Hello, is Kd of the following molecule strictly smaller than 2 mM? CC(C=CC1C(C)=CC(=O)CC1(C)C)=CC(=O)O (mixture of isomers) [2-cis-(R,S)-(±)-1’-deoxy-ABA]
Reply: 1.0

Ask: Hello, is Kd of the following molecule strictly smaller than 2 mM? O=C(O)c1ccccc1
Reply: 0.0

Ask: Hello, is Kd of the following molecule strictly smaller than 2 mM? NCCCCC(N)C(=O)O (racemic)
Reply: 0.0

Ask: Hello, is Kd of the following molecule strictly smaller than 2 mM? CC(C=CC12OC1(C)CC(O)CC2(C)C)=CC=O (centres unmarked)
Reply: 1.0

Ask: Hello, is Kd of the following molecule strictly smaller than 2 mM? CC(C=CC1(O)C2(C)COC1(C)CC(O)C2)=CC(=O)O (centres unmarked) [Dihydrophaseic acid]
Reply: 1.0

Ask: Hello, is Kd of the following molecule strictly smaller than 2 mM? CC1=CC(=O)CC(C)(C)[C@@]1(O)/C=C/C(C)=C\C(=O)O [2-cis-(S)-(+)-ABA]
Reply: 1.0

Ask: Hello, is Kd of the following molecule strictly smaller than 2 mM? CC(C)=CCC/C(C)=C/CC/C(C)=C/CO [All-trans-Farnesol]
Reply: 0.0

Ask: Hello, is Kd of the following molecule strictly smaller than 2 mM? C=C1C[C@]23C[C@@]1(O)CC[C@H]2[C@@]12C=C[C@H](O)[C@@](C)(C(=O)O1)[C@H]2[C@@H]3C(=O)O
Reply: 0.0

Ask: Hello, is Kd of the following molecule strictly smaller than 2 mM? CC(=C/C(=O)O)/C=C/[C@]1(O)[C@@]2(C)CO[C@]1(C)CC(=O)C2
Reply: 1.0

Ask: Hello, is Kd of the following molecule strictly smaller than 2 mM? O=C(O)Cc1c[nH]c2ccccc12
Reply: 0.0

Ask: Hello, is Kd of the following molecule strictly smaller than 2 mM? CC(C=CC1(O)C(C)=CC(=O)CC1(C)C)=CC(=O)O (racemic) [2-cis-(R,S)-(±)-ABA]
Reply: 1.0
